The origin of these recorded values is patent US20030044861A1.

Test system: HT-29 cells
Experiment: Apoptosis and necrosis by morphology (acridine orange/ethidium bromide)
Assay type: cell-based
Settings: HT-29 cells treated for 6 days
experimental_endpoint: % Apoptosis (%)
A number alone suffices; assume %.

Example entries and their recorded answers appear below.
- compound: "CCCCOc1cc(CC2CNC(=O)N2)ccc1OC (stereo not shown)"
  measurement_unit: "%"
  measured_value: 11
- compound: "COc1nc2c([nH]1)c(=O)n(C)c(=O)n2CC(C)C"
  measurement_unit: "%"
  measured_value: 2
- compound: "Clc1cccc(Nc2nnc(-c3ccccc3)c3ccccc23)c1"
  measurement_unit: "%"
  measured_value: 80

Q: Value wanted: % Apoptosis (HT-29 cells) of entry CC(C)Cn1c(=O)n(C)c(=O)c2[nH]cnc21
A: 4
